# assayInfo: qHTS of pediatric cancer cell lines to identify multiple opportunities for drug repurposing: Primary screen for Saos-2 cells (AID 1347097); note: nearly all actives have a fitted effect of over 40% in size
# details: Saos-2 viability, CellTiter-Glo ATP luminescence, 48 h; series mostly up to 46 µM
Records with an inconclusive call do not appear. Activity calls are given as the source filed them. Calls come from the whole dose curve; as a rule, active = well fitted cell-killing curve with a large enough effect; inconclusive = small, poorly fitted or top-dose-only effect; inactive = no such curve, though single readings can be large or run the other way.
// classify into active, inactive

Below, 5 compounds whose answers are already recorded.
1. COc1cc(S(N)(=O)=O)cc(C(=O)O)c1OC
inactive
2. C[C@H](N)C(=O)N[C@@H](C)C(=O)NC1[C@H]2CN(c3nc4c(cc3F)c(=O)c(C(=O)O)cn4-c3ccc(F)cc3F)C[C@@H]12 (some centres undefined)
inactive
3. NS(=O)(=O)c1cc(C(=O)NN2C[C@H]3[C@H]4CCC(C4)[C@H]3C2)ccc1Cl
inactive
4. OC1(c2ccc(Cl)c(C(F)(F)F)c2)CCN(CCCC(c2ccc(F)cc2)c2ccc(F)cc2)CC1
active
5. O=C(O)[C@H](O)[C@@H](O)[C@H](O[C@@H]1O[C@H](CO)[C@H](O)[C@H](O)[C@H]1O)[C@H](O)CO
inactive

INPUT: Could you check what this test reported for CCCCCCCC(=O)[O-].CCCCCCCC(=O)[O-].[Zn+2] ?
OUTPUT: inactive

INPUT: Called result for CO/N=C(/C(=O)N[C@@H]1C(=O)N2C(C(=O)[O-])=C(C[n+]3ccn4ncccc43)CS[C@H]12)c1nsc(N)n1
OUTPUT: inactive

INPUT: Call for entry CCN1C(=O)c2ccccc2C1Nc1ccc(OCCN2CCCCC2)cc1 (centres undefined) :
OUTPUT: inactive

INPUT: Kindly provide the recorded test outcome for the following compound: Nc1nc(=O)n([C@@H]2O[C@H](CO)[C@@H](O)[C@@H]2F)cc1I
OUTPUT: inactive
